Assign Concentration of evaluation compound decreased to each entry below.
# Format: physicochemical
# run.parameters: Tris-hydrochloric acid buffer (pH 7.5) 50 mmol/L, magnesium chloride 5 mmol/L, evaluation compound 1 µmol/L, 37°C, 60 minutes, average of duplicate
# Experimental: The conversion from the evaluation compounds to brexpiprazole in a buffer (i.e., the stability of the evaluation compounds) was evaluated. The Example 1 compound was dissolved in acetonitrile/water (1:1, v/v) to 10 mmol/L and further diluted with acetonitrile/water (1:1, v/v) to 100 µmol/L for use. […]

Requested field: Concentration of evaluation compound decreased. Item: CC(C)NC(=O)CCCCCCCCC(=O)OCOP(=O)([O-])OC[N+]1(CCCCOc2ccc3ccc(=O)[nH]c3c2)CCN(c2cccc3sccc23)CC1 [EX 76] 0 nM

Requested field: Concentration of evaluation compound decreased. Item: O=c1ccc2ccc(OCCCC[N+]3(COP(=O)([O-])OCCCCCCCCO)CCN(c4cccc5sccc45)CC3)cc2[nH]1 [EX 11] 30 nM

Requested field: Concentration of evaluation compound decreased. Item: CCOCCOC(=O)OCOP(=O)([O-])OC[N+]1(CCCCOc2ccc3ccc(=O)[nH]c3c2)CCN(c2cccc3sccc23)CC1 [EX 132] 130 nM

Requested field: Concentration of evaluation compound decreased. Item: O=C(OCOP(=O)([O-])OC[N+]1(CCCCOc2ccc3ccc(=O)[nH]c3c2)CCN(c2cccc3sccc23)CC1)C1CCOCC1 [EX 127] 40 nM

###

# Format: physicochemical
# run.parameters: Tris-hydrochloric acid buffer (pH 7.5) 50 mmol/L, magnesium chloride 5 mmol/L, evaluation compound 1 µmol/L, 37°C, 60 minutes, average of duplicate
# Protocol: The conversion from the evaluation compounds to brexpiprazole in a buffer (i.e., the stability of the evaluation compounds) was evaluated. The Example 1 compound was dissolved in acetonitrile/water (1:1, v/v) to 10 mmol/L and further diluted with acetonitrile/water (1:1, v/v) to 100 µmol/L for use. […]
observable: Concentration of brexpiprazole formed (nM)
Write it as a number; the unit nM goes unstated.

Requested field: Concentration of brexpiprazole formed. Item: `CC(C)OC(=O)OCOP(=O)([O-])OC[N+]1(CCCCOc2ccc3ccc(=O)[nH]c3c2)CCN(c2cccc3sccc23)CC1` 0

Requested field: Concentration of brexpiprazole formed. Item: `CCCCOCCOCCOCCOC(=O)OCOP(=O)([O-])OC[N+]1(CCCCOc2ccc3ccc(=O)[nH]c3c2)CCN(c2cccc3sccc23)CC1` 0

Requested field: Concentration of brexpiprazole formed. Item: `CCCCCCCCOP(=O)([O-])OC[N+]1(CCCCOc2ccc3ccc(=O)[nH]c3c2)CCN(c2cccc3sccc23)CC1` 0

Requested field: Concentration of brexpiprazole formed. Item: `O=C(OCOP(=O)([O-])OC[N+]1(CCCCOc2ccc3ccc(=O)[nH]c3c2)CCN(c2cccc3sccc23)CC1)OC1CCCCC1` 0

Requested field: Concentration of brexpiprazole formed. Item: `CC(C)(CC(=O)O)CC(=O)OCOP(=O)([O-])OC[N+]1(CCCCOc2ccc3ccc(=O)[nH]c3c2)CCN(c2cccc3sccc23)CC1` 0

Requested field: Concentration of brexpiprazole formed. Item: `CCOCCOCCOCCOC(=O)OCOP(=O)([O-])OC[N+]1(CCCCOc2ccc3ccc(=O)[nH]c3c2)CCN(c2cccc3sccc23)CC1` 0

Requested field: Concentration of brexpiprazole formed. Item: COCC1CCC(COP(=O)([O-])OC[N+]2(CCCCOc3ccc4ccc(=O)[nH]c4c3)CCN(c3cccc4sccc34)CC2)CC1 (stereo not shown) 0

Requested field: Concentration of brexpiprazole formed. Item: `O=c1ccc2ccc(OCCCC[N+]3(COP(=O)([O-])OCCN4CCOCC4)CCN(c4cccc5sccc45)CC3)cc2[nH]1` 0

Requested field: Concentration of brexpiprazole formed. Item: `CCOC(=O)CNP(=O)([O-])OC[N+]1(CCCCOc2ccc3ccc(=O)[nH]c3c2)CCN(c2cccc3sccc23)CC1` 0

Requested field: Concentration of brexpiprazole formed. Item: `O=c1ccc2ccc(OCCCC[N+]3(COP(=O)([O-])OCCCO)CCN(c4cccc5sccc45)CC3)cc2[nH]1` 0

Requested field: Concentration of brexpiprazole formed. Item: `O=C(OCOP(=O)([O-])OC[N+]1(CCCCOc2ccc3ccc(=O)[nH]c3c2)CCN(c2cccc3sccc23)CC1)C12CC3CC(CC(C3)C1)C2` 0

Requested field: Concentration of brexpiprazole formed. Item: `CC(C)OC(=O)[C@@H](C)OP(=O)([O-])OC[N+]1(CCCCOc2ccc3ccc(=O)[nH]c3c2)CCN(c2cccc3sccc23)CC1` 0

Requested field: Concentration of brexpiprazole formed. Item: `O=c1ccc2ccc(OCCCC[N+]3(COP(=O)([O-])OC/C=C/CO)CCN(c4cccc5sccc45)CC3)cc2[nH]1` 0

###

# Format: physicochemical
# run.parameters: Tris-hydrochloric acid buffer (pH 7.5) 50 mmol/L, magnesium chloride 5 mmol/L, evaluation compound 1 µmol/L, 37°C, 60 minutes, average of duplicate
Assign Concentration of evaluation compound decreased to each entry below.
Write it as a number; the unit nM goes unstated.

Requested field: Concentration of evaluation compound decreased. Item: `O=c1ccc2ccc(OCCCC[N+]3(COP(=O)([O-])O)CCN(c4cccc5sccc45)CC3)cc2[nH]1` 0

Requested field: Concentration of evaluation compound decreased. Item: `O=c1ccc2ccc(OCCCC[N+]3(COP(=O)([O-])OCCOCC4CC4)CCN(c4cccc5sccc45)CC3)cc2[nH]1` -40

Requested field: Concentration of evaluation compound decreased. Item: `O=C(OCOP(=O)([O-])OC[N+]1(CCCCOc2ccc3ccc(=O)[nH]c3c2)CCN(c2cccc3sccc23)CC1)C1CCCCC1` -10

Requested field: Concentration of evaluation compound decreased. Item: `CC(C)(C)[Si](C)(C)OCCCCOP(=O)([O-])OC[N+]1(CCCCOc2ccc3ccc(=O)[nH]c3c2)CCN(c2cccc3sccc23)CC1` 90

###

Assign Concentration of evaluation compound decreased to each entry below.
# Type: physicochemical
# run.parameters: Tris-hydrochloric acid buffer (pH 7.5) 50 mmol/L, magnesium chloride 5 mmol/L, evaluation compound 1 µmol/L, 37°C, 60 minutes, average of duplicate
Write it as a number; the unit nM goes unstated.

Requested field: Concentration of evaluation compound decreased. Item: `O=c1ccc2ccc(OCCCC[N+]3(COP(=O)([O-])OC[C@H]4CC[C@H](CO)CC4)CCN(c4cccc5sccc45)CC3)cc2[nH]1` 50

Requested field: Concentration of evaluation compound decreased. Item: `C[C@H](NP(=O)([O-])OC[N+]1(CCCCOc2ccc3ccc(=O)[nH]c3c2)CCN(c2cccc3sccc23)CC1)C(=O)OC(C)(C)C` 80

Requested field: Concentration of evaluation compound decreased. Item: `CCC(=O)OCOP(=O)([O-])OC[N+]1(CCCCOc2ccc3ccc(=O)[nH]c3c2)CCN(c2cccc3sccc23)CC1` 50

Requested field: Concentration of evaluation compound decreased. Item: `CC(C)(C)OC(=O)CCCC(=O)OCOP(=O)([O-])OC[N+]1(CCCCOc2ccc3ccc(=O)[nH]c3c2)CCN(c2cccc3sccc23)CC1` -10

Requested field: Concentration of evaluation compound decreased. Item: `CCC(C)(C)C(=O)OCOP(=O)([O-])OC[N+]1(CCCCOc2ccc3ccc(=O)[nH]c3c2)CCN(c2cccc3sccc23)CC1` 50

Requested field: Concentration of evaluation compound decreased. Item: `CCOC(=O)CNP(=O)([O-])OC[N+]1(CCCCOc2ccc3ccc(=O)[nH]c3c2)CCN(c2cccc3sccc23)CC1` 20

Requested field: Concentration of evaluation compound decreased. Item: `COCCCOC(=O)OCOP(=O)([O-])OC[N+]1(CCCCOc2ccc3ccc(=O)[nH]c3c2)CCN(c2cccc3sccc23)CC1` 120

Requested field: Concentration of evaluation compound decreased. Item: `CCCCOCCOP(=O)([O-])OC[N+]1(CCCCOc2ccc3ccc(=O)[nH]c3c2)CCN(c2cccc3sccc23)CC1` 30

Requested field: Concentration of evaluation compound decreased. Item: `COCCCCOC(=O)OCOP(=O)([O-])OC[N+]1(CCCCOc2ccc3ccc(=O)[nH]c3c2)CCN(c2cccc3sccc23)CC1` -40

Requested field: Concentration of evaluation compound decreased. Item: `CC(C)(C)OC(=O)NC(C)(C)C(=O)OCOP(=O)([O-])OC[N+]1(CCCCOc2ccc3ccc(=O)[nH]c3c2)CCN(c2cccc3sccc23)CC1` -30

Requested field: Concentration of evaluation compound decreased. Item: `COCCOCCOCCOC(=O)OCOP(=O)([O-])OC[N+]1(CCCCOc2ccc3ccc(=O)[nH]c3c2)CCN(c2cccc3sccc23)CC1` -20

Requested field: Concentration of evaluation compound decreased. Item: `CC(C)(C)OP(=O)([O-])OC[N+]1(CCCCOc2ccc3ccc(=O)[nH]c3c2)CCN(c2cccc3sccc23)CC1` 20

Requested field: Concentration of evaluation compound decreased. Item: `CC1(C)OCC(NC(=O)CCCC(=O)OCOP(=O)([O-])OC[N+]2(CCCCOc3ccc4ccc(=O)[nH]c4c3)CCN(c3cccc4sccc34)CC2)CO1` 50

Requested field: Concentration of evaluation compound decreased. Item: `O=c1ccc2ccc(OCCCC[N+]3(COP(=O)([O-])OCCCCCO)CCN(c4cccc5sccc45)CC3)cc2[nH]1` 110

Requested field: Concentration of evaluation compound decreased. Item: `COCCOCCOP(=O)([O-])OC[N+]1(CCCCOc2ccc3ccc(=O)[nH]c3c2)CCN(c2cccc3sccc23)CC1` -60

Requested field: Concentration of evaluation compound decreased. Item: `COP(=O)([O-])OC[N+]1(CCCCOc2ccc3ccc(=O)[nH]c3c2)CCN(c2cccc3sccc23)CC1` 0

Requested field: Concentration of evaluation compound decreased. Item: `CC(C)OC(=O)[C@@H](C)OP(=O)([O-])OC[N+]1(CCCCOc2ccc3ccc(=O)[nH]c3c2)CCN(c2cccc3sccc23)CC1` 50

Requested field: Concentration of evaluation compound decreased. Item: `CCOC(=O)CCCC(=O)OCOP(=O)([O-])OC[N+]1(CCCCOc2ccc3ccc(=O)[nH]c3c2)CCN(c2cccc3sccc23)CC1` 90

Requested field: Concentration of evaluation compound decreased. Item: `COCCCOP(=O)([O-])OC[N+]1(CCCCOc2ccc3ccc(=O)[nH]c3c2)CCN(c2cccc3sccc23)CC1` 50

Requested field: Concentration of evaluation compound decreased. Item: `CCOC(=O)C[C@@H](OP(=O)([O-])OC[N+]1(CCCCOc2ccc3ccc(=O)[nH]c3c2)CCN(c2cccc3sccc23)CC1)C(=O)OCC` 20

Requested field: Concentration of evaluation compound decreased. Item: `CCOC(=O)[C@H](C)OP(=O)([O-])OC[N+]1(CCCCOc2ccc3ccc(=O)[nH]c3c2)CCN(c2cccc3sccc23)CC1` 200

Requested field: Concentration of evaluation compound decreased. Item: `CCOC(=O)COP(=O)([O-])OC[N+]1(CCCCOc2ccc3ccc(=O)[nH]c3c2)CCN(c2cccc3sccc23)CC1` 70

Requested field: Concentration of evaluation compound decreased. Item: `CCCC(C)(C)C(=O)OCOP(=O)([O-])OC[N+]1(CCCCOc2ccc3ccc(=O)[nH]c3c2)CCN(c2cccc3sccc23)CC1` -110
